Target: human M2 acetylcholine receptor (M2AChR) (Homo sapiens)
Assay: Cellular functional in vitro test (aequorin luminescence in recombinant CHO K1 cells)
Settings: agonist activity; CHO K1 cells expressing human M2AChR, aequorin and Gα16; luminescence readout
Source text: A recombinant cell line was used to identify agonists of the human M2 acetylcholine receptor (M2A ChR) and to quantify the activity of the substances described herein. […] The resulting M2AChR test cell responds to stimulation of the recombinant M2ACh receptor with an intracellular release of calcium ions, which can be quantified through the resulting aequorin luminescence with a suitable luminometer (Milligan G, Marshall F, Rees S, Trends in Pharmacological Sciences 17 (1996) 235-237). […]
Please provide measured pEC50 for the entries that follow.
Answers are plain numbers, as −log10 of the molar value.

Examples with their reported pEC50 follow.
* O=C(NCc1ccsc1)c1ccc2c(c1)N(C(=O)CNC1CCCCC1)CC(=O)N2C1CC1 | 5.74
* C[C@H](NC(=O)c1ccc2c(c1)N(C(=O)CN[C@H]1CC[C@H](O)CC1)CC(=O)N2C1CC1)c1ccncc1 | 6.82
* C[C@H](NC(=O)c1ccc2c(c1)N(C(=O)CN[C@@H](C)C(C)(C)C)CC(=O)N2C1CC1)c1ccncc1 | 7.49

Ask: Form field: pEC50 recorded for CC(NC(=O)c1ccc2c(c1)N(C(=O)CNC1CCCCC1)CC(=O)N2C1CC1)c1cccnc1 (stereo not shown) with human M2 acetylcholine receptor (M2AChR) (Homo sapiens) (enter value)
Reply: 7.43

---

Molecular target: human M2 acetylcholine receptor (M2AChR) (Homo sapiens)
Sequence (P08172 1-466): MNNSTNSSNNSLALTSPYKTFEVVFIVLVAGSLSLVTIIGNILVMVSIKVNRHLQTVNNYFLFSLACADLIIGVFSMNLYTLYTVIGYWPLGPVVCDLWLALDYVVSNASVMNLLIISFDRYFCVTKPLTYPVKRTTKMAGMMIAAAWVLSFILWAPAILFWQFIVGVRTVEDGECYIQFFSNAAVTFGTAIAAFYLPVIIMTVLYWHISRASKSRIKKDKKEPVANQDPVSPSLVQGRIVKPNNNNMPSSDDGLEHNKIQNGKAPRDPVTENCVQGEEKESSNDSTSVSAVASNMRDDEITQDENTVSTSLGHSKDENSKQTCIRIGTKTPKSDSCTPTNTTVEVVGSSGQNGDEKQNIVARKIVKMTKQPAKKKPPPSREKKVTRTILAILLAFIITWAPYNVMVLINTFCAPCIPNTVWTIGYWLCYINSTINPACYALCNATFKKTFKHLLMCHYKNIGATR
Assay: Cellular functional in vitro test (aequorin luminescence in recombinant CHO K1 cells)
Settings: agonist activity; CHO K1 cells expressing human M2AChR, aequorin and Gα16; luminescence readout
Please provide measured EC50 for the entries that follow.
One number for each entry, in nM.

Examples with their reported EC50 follow.
• C[C@H](NC(=O)c1ccc2c(c1)N(C(=O)CNCC(C)(C)C)CC(=O)N2C1CC1)c1ccncc1 = 18
• CC1CCCC(NCC(=O)N2CC(=O)N(C3CC3)c3ccc(C(=O)NC(C)c4cccnc4)cc32)C1 (stereo not shown) = 320
• CC(NC(=O)c1ccc2c(c1)N(C(=O)CNC1CCCCC1)CC(=O)N2C1CC1)c1ccncc1 (single isomer, unassigned; (+)) = 5

# evaluate next
Ask: What value of EC50 has been recorded for this entry: CC(NC(=O)c1ccc2c(c1)N(C(=O)CNC1CCC1)CC(=O)N2C1CC1)c1cccnc1 (stereo not shown)
Reply: 1000
